The following compounds are shown together with reported MIC90 values.
tested on: Mycobacterium tuberculosis variant bovis BCG; test: microbe, parasite or virus in culture; format: functional
Kindly answer with a numeric value in µM, unit omitted.

Worked examples, 5 compounds total:
The recorded MIC90 for entry "CCN(CC)c1ccc(-c2nn3c(-c4n[nH]c5c4CCC5)nnc3s2)cc1" equals 7

The compound identified as "Cc1cc2cc(C)c(NCCN)nc2cc1C" registered its MIC90 at 5.7

The recorded MIC90 for entry "COc1ccc2nc(C)cc(OCC(=O)Nc3cc(C)cc(C)c3)c2c1" equals 0.5

# MIC90 (compound: "Br.CCCc1cc(C(C)=O)ccc1OCCCON1C(=N)N=C(N)NC1(C)C" ) is 8.8

Looking up "O=C(CSc1nc(-c2ccccc2)cs1)NNC(=O)c1cccs1" , I found its MIC90 recorded as 9.8

***
The measured MIC90 associated with "Br.Cc1ccccc1OCCCON1C(=N)N=C(N)NC1(C)C" reads 7

---

test system: Mycobacterium tuberculosis variant bovis BCG; assay: microbe, parasite or virus in culture; format: functional
# note: boundary value 4 µM maps to NOT MET; MIC90 below it maps to MET

Lab note: MIC90 threshold 4 µM. Does this compound come in strictly under it? "C=CCNCCS(=O)(=O)c1cccc(Nc2ccc(-c3ccsc3)cn2)c1" NOT MET

Further cases:
Would you kindly verify if MIC90 of "Cc1ccc(NC(=O)c2nc(N3CCCN(C)CC3)ccc2Cl)cc1F" is strictly less than 4 µM? NOT MET

Bench note: check whether "Nc1ccccc1Nc1ccc2c(c1)OCO2" shows MIC90 below 4 µM MET

Please indicate whether the reported MIC90 of "Cc1ccc(O)cc1Nc1ccnc2ccc(-c3cccc(CNCCN(C)C)c3)cc12" is strictly below 4 µM. NOT MET

Dear colleague, could you confirm whether MIC90 of "COc1ccc(N(C(=O)CNc2ccccc2Nc2ccc(Cl)cc2)C(C)C)cc1" falls below 4 µM? Thanks. MET

---

# Lookup of reported MIC90 keyed by entry
test system: Mycobacterium tuberculosis variant bovis BCG; experiment: microbe, parasite or virus in culture; type: functional
Quick reminder: number only, in µM, skip the unit.

Below are worked cases with known answers.
MIC90 reading for "COc1ccccc1OCCCCn1c(C2CC2)nc2ccccc21" : 3

Consider "O=C(Nc1ccccc1C(F)(F)F)N1CCN(c2ccc3nnc(-c4ccc(F)cc4)n3n2)CC1" . Its measured MIC90 is 4

For CC1=NN(C(=O)c2ccncc2)C(O)(c2ccncc2)C1 (stereo not drawn) the molecule record lists MIC90 as 2.6

Please fill in: MIC90 reported for "CCCCCNc1nc(N2CCCC2)c2c(c1C#N)CCN(C)C2" = 1.6

// MIC90 lookup, molecule = Cc1cc(/C=C/c2cccc(C(=O)O)c2)cc(Cl)c1OC1CCN(C)C1 (stereo not drawn) , result: 8

More entries:
// MIC90 lookup, molecule = "O=C(COc1ccc(Cl)cc1)NNC(=O)c1cccs1" , result: 4.2

The molecule identified as "Cc1cccc(-c2nc(Nc3ccncn3)c3c(C)csc3n2)n1" registered its MIC90 at 0.3

The molecule listed as "CCOC(=O)c1c(-c2ccccc2)oc2ccc(O)c(CN3CCCCC3)c12" shows MIC90 equal to 1.4

The molecule identified as "COc1cc(Nc2ccccc2)ccc1NS(=O)(=O)c1c(C)noc1C" registered its MIC90 at 2.9

---

tested on: Mycobacterium tuberculosis variant bovis BCG; assay: microbe, parasite or virus in culture; format: functional
Simple rule here: MIC90 less than 8 µM is Condition met, otherwise Condition not met.

Solved entries:
Problem: For the compound "CN(C)S(=O)(=O)c1ccc(C(=O)Nc2nnc(-c3ccc(Cl)s3)o2)cc1" , is MIC90 under 8 µM? Condition met

Input "CC(C)OC(=O)COc1ccc(-c2cnc(N(C)CCc3ccncc3)nc2)cc1" ; condition: MIC90 strictly below 8 µM. Does it hold? Condition not met

Is the reported MIC90 for "Cc1ccc2sc(N(CCCn3ccnc3)C(=O)c3cccs3)nc2c1C" strictly below 8 µM? Condition not met

Problem: For the compound O=C(Nc1cccc(C(=O)N2CCCC(c3nc4ccccc4s3)C2)c1)c1cccs1 (configuration not stated) , is MIC90 under 8 µM? Condition met

Does this compound meet the criterion MIC90 < 8 µM? "CN(Cc1nc2ccccc2s1)C(=O)c1cccc(NC(=O)c2cccs2)c1" Condition met

Further cases:
Does this compound meet the criterion MIC90 < 8 µM? "CCOC(=O)c1cc(-c2csc(Nc3c(C)cc(C)cc3C)n2)on1" Condition met

Say whether its MIC90 is strictly beneath 8 µM. Entry: O=C(Nc1nc2c(F)cc(F)cc2s1)C1CCCN1S(=O)(=O)c1cccs1 (configuration not stated) Condition met

Lab note: MIC90 threshold 8 µM. Does this compound come in strictly under it? "CCN(CC)CCCn1c(Sc2ccnc(N3CCN(c4ccncc4)CC3)n2)nnc1-c1ccccc1" Condition met

---

system: Mycobacterium tuberculosis variant bovis BCG; assay: microbe, parasite or virus in culture; type: functional
Value kind: MIC90
Dear colleague, please send the value followed by its unit.

Before answering, review these 5 worked examples.
GET /value?item= "CCc1nc(N2CCNCC2)c2c(C)nn(-c3ccc(OC)cc3)c2n1" &field=MIC90 returns 1.1 µM

"Cc1occc1C(=O)Nc1nc(-c2ccccn2)nc2ccsc12" has a reported MIC90 of 1.1 µM

Just so you know, measured MIC90 for "CNc1nc(SC)nc2ccsc12" came out at 10 µM

Lab book: MIC90 of CCc1c(C)nc(-n2nc(C)cc2NC(=O)C(CC)c2ccccc2)[nH]c1=O (stereo unspecified) noted as 1.2 µM

So for "Cc1ccc2nc(C(F)(F)F)c(C(=O)NCc3ccco3)n2c1" , the logged MIC90 turned out to be 4.9 µM

Now, please, on to the next molecule.
Lab book: MIC90 of "Cc1ccc2sc(N(CCCn3ccnc3)C(=O)c3ccco3)nc2c1C" noted as 5.6 µM

---

Reported MIC90 is given for each of the following molecules.
system: Mycobacterium tuberculosis variant bovis BCG; assay: microbe, parasite or virus in culture; format: functional
Answer format: numeric, µM implied, no suffix.

// MIC90 lookup, molecule = "CCCc1ccc(S(=O)(=O)Nc2cc(CN3CCN(CCC)CC3)ccc2C)cc1" , result: 9.9

Others:
// sample CCc1ccc(C2CC(C(F)(F)F)n3ncc(C(=O)NCc4cccs4)c3N2)cc1 (stereo not given) , its MIC90 was 8.8

Per the records, this molecule ( "Cc1cc(C)c2cc(CN(Cc3cccnc3)C(=O)c3ccccc3)c(Cl)nc2c1" ) has MIC90 equal to 8.8

According to the records, this molecule "Cc1nnc(NCc2ccccc2)c2ccccc12" displays MIC90 of 4.4

---

tested on: Mycobacterium tuberculosis variant bovis BCG; experiment: microbe, parasite or virus in culture; format: functional
// boundary case: MIC90 equal to 5 µM maps to f; strictly smaller maps to t

is_below(MIC90, 5 µM) for "Cc1[nH]n2c(=O)cc(-c3ccccc3Cl)nc2c1-c1ccccc1" ? f

Problem: For the molecule "COc1ccc(C(=O)Nc2nnc(-c3ccc4c(c3)CCCC4)o2)cc1" , is MIC90 under 5 µM? t

Given the entry "Oc1cc(CSc2ccc(Cl)cc2)nc(-c2ccccn2)n1" , would its reported MIC90 be below 5 µM? f

Next:
Given the entry "CC(=O)CCN1C(=O)C(=O)c2cc(Br)ccc21" , would its reported MIC90 be below 5 µM? f

Bench note: check whether "CSc1ccc(-c2nnc(NC(=O)c3cccc(F)c3)o2)cc1" shows MIC90 below 5 µM t

# strict comparison: is reported MIC90 < 5 µM? input = "Oc1nc(-c2ccccn2)nc(C(F)(F)F)c1Br" f

Lab note: confirm whether the reported MIC90 for this molecule is below 5 µM, equality not counting. molecule: "CCCCNC(=O)N1CCN(Cc2cccc3ccccc23)CC1" f

Bench note: check whether "NC(=O)c1ccc(-c2cccc(OCCNCCc3cccc(F)c3)c2)cc1" shows MIC90 below 5 µM t

In plain terms, does "Nc1nc2cc(-c3cncc(Oc4ccc(F)cc4)c3)ccc2[nH]1.O=C(O)C(F)(F)F.O=C(O)C(F)(F)F" come in under 5 µM for MIC90? f

Lab note: confirm whether the reported MIC90 for this molecule is below 5 µM, equality not counting. molecule: "O=C(Nc1nnc(-c2ccccc2)o1)c1ccc(F)cc1" f

Is the reported MIC90 for "O=c1oc2ccccc2nc1CS(=O)(=O)c1ccc(Br)cc1" strictly below 5 µM? t

is_below(MIC90, 5 µM) for "Cc1cnc(N2CCN[C@@H](Cc3ccccc3)C2)nc1Oc1ccc(-n2ccnc2)cc1.O=C(O)C(F)(F)F" ? f

---

tested on: Mycobacterium tuberculosis variant bovis BCG; assay: microbe, parasite or virus in culture; type: functional
Listed here are compounds together with their documented MIC90.
The figure you give is taken to be in µM; do not add the unit.

Known MIC90 results, listed for orientation:
Value of MIC90 reported for the compound "COc1ccc(-c2cc3nccc(C4CCNCC4)n3n2)cc1" is 5.7

MIC90 in this record for "Cc1ccc2c(NC(=O)Nc3ccc(N(C)C)cc3)cc(C)nc2c1" : 5.8

response.value for "Cn1cc(-c2noc(CCN[C@H]3CC[C@H](C)CC3)n2)c2ccccc21" (field: MIC90) = 9.4

Looking up COc1ccc(S(=O)(=O)N(C)C)cc1C(=O)N[C@H]1CCN2CC(c3ccccc3)C[C@H]2C1 (stereo not given in full) , I found its MIC90 recorded as 0.4

Next:
Query COc1ccc(-c2cc(C(=O)NC3CCCCNC3=O)n3nc(C(C)(C)C)cc3n2)cc1 (stereo not given) yields MIC90 of 3.7
